The measurements presented in this section are drawn from paper PMC12706802.

- MEASUREMENT TARGET: HDAC1 (Homo sapiens, UniProt Q13547)
- Sequence (Q13547 whole entry): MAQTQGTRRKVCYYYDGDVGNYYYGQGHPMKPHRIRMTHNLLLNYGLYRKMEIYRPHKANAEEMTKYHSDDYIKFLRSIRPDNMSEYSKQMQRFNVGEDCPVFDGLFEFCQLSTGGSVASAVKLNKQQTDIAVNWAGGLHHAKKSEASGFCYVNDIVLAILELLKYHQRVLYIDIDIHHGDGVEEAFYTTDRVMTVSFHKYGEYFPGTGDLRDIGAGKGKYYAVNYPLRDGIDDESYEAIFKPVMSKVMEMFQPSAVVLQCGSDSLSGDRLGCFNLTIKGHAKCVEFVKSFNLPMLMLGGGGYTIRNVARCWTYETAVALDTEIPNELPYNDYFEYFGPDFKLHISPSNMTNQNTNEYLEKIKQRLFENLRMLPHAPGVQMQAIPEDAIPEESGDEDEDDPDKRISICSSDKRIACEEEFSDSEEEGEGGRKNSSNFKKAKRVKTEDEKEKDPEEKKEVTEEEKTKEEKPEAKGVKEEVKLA
- TEST DETAILS: IC50-shift (preincubation time) experiments
- TEST SETTINGS: HDAC1 IC50, preincubation time 60 min
QUANTITY: IC50 (nM)
State just the number; it will be interpreted in nM.

Q: // returns reported IC50 for input CC(=O)Nc1ccc(C(=O)Nc2cc(-c3ccccc3)ccc2O)cc1 [ST13]
A: 34

====

- MEASUREMENT TARGET: HDAC2 (Homo sapiens, UniProt Q92769)
- Sequence (Q92769 whole entry): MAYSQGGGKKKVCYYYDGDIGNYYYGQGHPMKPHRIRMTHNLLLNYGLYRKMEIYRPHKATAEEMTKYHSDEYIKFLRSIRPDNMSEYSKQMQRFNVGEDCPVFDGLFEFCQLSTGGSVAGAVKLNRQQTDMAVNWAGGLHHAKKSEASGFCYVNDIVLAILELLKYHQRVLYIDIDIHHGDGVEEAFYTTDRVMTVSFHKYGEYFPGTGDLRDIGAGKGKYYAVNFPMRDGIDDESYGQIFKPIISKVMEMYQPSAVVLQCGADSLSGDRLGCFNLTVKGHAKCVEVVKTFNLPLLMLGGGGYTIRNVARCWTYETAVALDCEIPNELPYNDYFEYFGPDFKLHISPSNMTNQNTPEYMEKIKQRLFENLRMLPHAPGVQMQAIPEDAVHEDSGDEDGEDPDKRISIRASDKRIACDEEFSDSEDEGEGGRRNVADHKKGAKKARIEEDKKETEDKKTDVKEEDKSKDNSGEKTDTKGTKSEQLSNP
- TEST DETAILS: IC50-shift (preincubation time) experiments
- TEST SETTINGS: HDAC2 IC50, preincubation time 5 min
QUANTITY: IC50

Q: Endpoint output: IC50 of CC(=O)Nc1ccc(C(=O)Nc2cc(-c3ccccc3)ccc2O)cc1 . Value?
A: 0.082 µM
